# target under test: opioid receptor (Mus musculus)
# Construct: Five CF-1 male mice (Charles River, Portage, MI); from tissue; host or cells: living CF-1 male mice (whole animal, endogenous receptor)
# Sequence (P42866 whole entry): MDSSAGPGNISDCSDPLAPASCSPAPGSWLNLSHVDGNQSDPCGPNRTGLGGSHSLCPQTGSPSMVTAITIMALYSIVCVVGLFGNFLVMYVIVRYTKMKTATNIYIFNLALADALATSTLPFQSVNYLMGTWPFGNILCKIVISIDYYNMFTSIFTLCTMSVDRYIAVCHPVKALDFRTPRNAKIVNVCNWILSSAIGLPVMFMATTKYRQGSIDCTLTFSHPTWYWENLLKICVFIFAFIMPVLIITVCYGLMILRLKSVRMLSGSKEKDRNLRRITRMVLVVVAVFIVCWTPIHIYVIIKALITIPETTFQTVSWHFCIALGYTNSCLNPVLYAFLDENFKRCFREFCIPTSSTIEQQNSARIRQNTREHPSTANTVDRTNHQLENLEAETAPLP
# assay: in vivo
# Parameters: species or system CF-1 male mice
# condition parameters: sc; mouse writhing test; […]; s.c. 20 min before acetic acid; read-out: AD50 (the source's name)
property measured: ED50

Guide cases for ED50, answers given:
C[C@@H]1CN(C[C@@H](CC2CCCCC2)NC(=O)CCCC(=O)O)CC[C@]1(C)c1cccc(O)c1 [Example 48D] : > 40 mg/kg
CCNC(=O)COC(=O)CCCC(=O)N[C@@H](CC1CCCCC1)CN1CC[C@](C)(c2cccc(O)c2)[C@H](C)C1 [Example 65] : > 40 mg/kg
C[C@H]1CN(C[C@H](CC2CCCCC2)NC(=O)CCCC(=O)O)CC[C@@]1(C)c1cccc(O)c1 [Example 45D] : > 40 mg/kg

// query Recorded ED50 for C[C@H]1CN(CC(Cc2ccccc2)NC(=O)CCCC(=O)O)CC[C@@]1(C)c1cccc(O)c1 (relative stereo) [Example 15, monohydrate] , please?
// result 1.39 mg/kg

// query Recorded ED50 for CCCOC(=O)CCC(=O)N(CCN1CC[C@@](C)(c2cccc(O)c2)[C@@H](C)C1)C1CCCCC1 (relative stereo) [Example 31] , please?
// result > 40 mg/kg
